Catalogue of compounds with associated log10 TGI
- System: RPMI-8226 leukemia
- assay-overview: NCI tumour cell line growth inhibition, 48 h
Remember, log10 of TGI, in µM.

- compound: "COc1cc(/C=C/C(=O)C(C(=O)/C=C/c2ccc(OC(=O)CCNc3nnc(C)s3)c(OC)c2)C(=O)CCNc2nnc(C)s2)ccc1OC(=O)CCNc1nnc(C)s1"
  tgt: "RPMI-8226 leukemia"
  log10 TGI: 0.69

Next item in the queue.
[Q] Give the measured log10 TGI of CN(C)c1ccc(/C=C/c2ccnc3ccccc23)cc1N .
[A] 1.19

---

Catalogue of compounds with associated log10(TGI)
- Tested on: CCRF-CEM leukemia
- assay-overview: NCI tumour cell line growth inhibition, 48 h
Remember, log10 of TGI, in µM.

// known answers, use as guide
- compound: "Nc1ccc(C(=O)NN2C(=O)C(Cl)C2c2ccc([N+](=O)[O-])cc2)cc1 (stereo not drawn)"
  log10(TGI): 1.15
- compound: "O=c1oc2ccc(F)cc2c(=O)n1-c1ccc(Cl)cc1F"
  log10(TGI): 1.11
- compound: "O=C1c2ccccc2C(=O)c2c1oc(=O)c1ccccc21"
  log10(TGI): 1.20
- compound: "O=C1CSC(=S)N1Cc1cccnc1"
  log10(TGI): 1.94
- compound: "c1ccc2c(c1)CCN1CCc3c([nH]c4ccccc34)C21 (stereo not drawn)"
  log10(TGI): 1.98

[Q] Give the measured log10(TGI) of Cc1cc(N(CCC#N)CCC#N)ccc1/C(N=Nc1ccccc1)=N\NC(=O)c1ccccc1 .
[A] 1.79

[Q] Also need COC(=O)c1oc2c(O)c(OC)c(Br)cc2c1C , thanks.
[A] 1.83

[Q] Also need CC(=O)Nc1ccc(S(=O)(=O)[N-]C2C(=O)c3ccccc3C(=O)C2[n+]2ccccc2)cc1 (stereo not drawn) , thanks.
[A] 1.61

[Q] Also need COP(=O)(OC)C(O)/C=C(\Cl)c1ccc(Cl)cc1 (stereo not drawn) , thanks.
[A] 1.69

[Q] Also need COc1cc2c(cc1OCCCCCn1c(-c3ccco3)nc3ccccc31)N=C[C@@H]1CCCN1C2=O , thanks.
[A] -1.05

# credit: PubChem BioAssay (NCI)
